Provide the recorded peptide exchange yield for the entries that follow.
Target Of Assay: T1, HLA-A*02:01 (human)
T1 construct: MHC class I monomer of the UV-ligand exchange assay; also called peptide-receptive MHC molecules; MHC class I
Test Details: UV peptide-exchange ELISA

Example entries and their recorded answers appear below.
YIQQGIFSV ... 50 to 75%
GLDQQFAGLDL ... 10 to 20%
NLLDDRGMTAL ... 50 to 75%
SALDTITTV ... 50 to 75%
FIAPTGHSL ... 20 to 50%

# per-item lookup of peptide exchange yield; items listed below
1. GVMDVNTAL
2. ILQALAVHL
3. FLSPQQPPLL
4. ILDFGTFQL

1. 20 to 50%
2. 50 to 75%
3. 50 to 75%
4. 50 to 75%

Could you tell me which peptide exchange yield is on file for "IILPVEVEV" ?
50 to 75%
